Hello, the source for this data is the antibiotic and cytotoxicity screens of Wong et al. (2023), in case you need it.

- Tested on: HSkMC
- TEST_PROTOCOL: cytotoxicity call (relative viability < 0.9)
- SETUP_CONDITIONS: 10 µM
The campaign covered roughly 39,000 compounds. About 1,500 (3.8%) were called active. Shown is part of a subset that was picked to be rich in actives.
READOUT_NAME: cytotoxicity call

These solved cases illustrate the format of a correct answer.
INSERT INTO results (structure_smiles_string, observed_result) VALUES
  ('CCC(=O)Nc1nc2[nH]c(COC)cc(=O)n2n1', 'inactive'),
  ('COc1ccc(S(=O)(=O)Nc2ccccc2CN(C)C/C=C/c2ccc(Cl)cc2)cc1.O=P(=O)OO', 'inactive'),
  ('C[C@H]1CN([C@@H](C)CO)C(=O)c2cc(NC(=O)Cc3cn(C)c4ccccc34)ccc2O[C@@H]1CN(C)S(C)(=O)=O', 'inactive'),
  ('C[C@@H]1CN([C@@H](C)CO)C(=O)c2cc(NC(=O)Nc3ccc(F)cc3)ccc2O[C@H]1CN(C)S(=O)(=O)c1cn(C)cn1', 'inactive'),
  ('C[C@@H]1CCCCO[C@H](CN(C)Cc2ccccc2)[C@H](C)CN([C@@H](C)CO)C(=O)c2cc(NC(=O)c3ccccc3)ccc2O1', 'inactive'),
  ('O=C(NC1CCCCC1)N1c2ccccc2C=Cc2ccccc21', 'inactive'),
  ('O=C(CCCCCNC(=O)OCc1ccc(CO[C@@H]2C[C@H](c3ccc(C(F)(F)F)cc3)C=C(C(=O)N3CCN(Cc4ccc5c(c4)OCO5)CC3)O2)cc1)NO', 'inactive'),
  ('C[C@H](CO)N1C[C@H](C)[C@@H](CN(C)Cc2ccc(-c3ccccc3)cc2)Oc2ccc(NC(=O)Cc3cn(C)c4ccccc34)cc2C1=O', 'inactive');

Query block: Specify cytotoxicity call for C[C@@H]1CN([C@@H](C)CO)C(=O)c2cc(NC(=O)Nc3ccccc3)ccc2O[C@@H](C)CCCCO[C@H]1CN(C)S(=O)(=O)c1ccccc1F and stop.
Result block: inactive

Query block: Specify measured cytotoxicity call for Clc1ccc(-c2cccs2)nn1 .
Result block: inactive

Query block: Complete the entry with cytotoxicity call for O=C(O)C1(c2cccs2)CCCC1
Result block: inactive

Query block: Name the recorded cytotoxicity call of the item COc1ccc(NC(=O)Nc2cccc3c2O[C@@H](CN(C)C(=O)Nc2ccc(C(F)(F)F)cc2)[C@@H](C)CN([C@@H](C)CO)C3=O)cc1 in your answer.
Result block: inactive

Query block: Note cytotoxicity call for the compound shown: O=C(C[C@@H]1CC[C@@H]2[C@H](COC[C@@H](O)CN2C(=O)Nc2ccc(F)cc2)O1)NCCCN1CCOCC1
Result block: inactive

====

- Test system: HSkMC (human skeletal muscle cells)
- TEST_PROTOCOL: cytotoxicity call (relative viability < 0.9)
- SETUP_CONDITIONS: 10 µM
Screen size: about 39,000 compounds; about 1,500 (3.8%) were called active. Many of the other results were omitted from the sample, so actives are more common in it than they were.
The reply should be one of these categories: active, inactive

Answered examples (5):
INSERT INTO assay_data (structure_smiles_string, assigned_category) VALUES
  ('C[C@H]1CN([C@@H](C)CO)C(=O)Cc2cc(NC(=O)Nc3ccc(C(F)(F)F)cc3)ccc2O[C@H]1CN(C)Cc1ccc(Cl)c(Cl)c1', 'active'),
  ('O=c1cc(-c2ccccc2)[nH]c(=O)[nH]1', 'inactive'),
  ('C[C@@H]1CN([C@H](C)CO)C(=O)c2cc(NC(=O)Nc3cccc4ccccc34)ccc2O[C@@H](C)CCCCO[C@@H]1CN(C)S(=O)(=O)c1ccc(F)cc1', 'inactive'),
  ('C[C@@H]1CN([C@H](C)CO)C(=O)Cc2cc(NC(=O)Nc3ccc(C(F)(F)F)cc3)ccc2O[C@@H]1CN(C)Cc1ccc(Cl)c(Cl)c1', 'active'),
  ('C[C@@H]1CN([C@@H](C)CO)C(=O)Cc2cc(NC(=O)Nc3ccc(C(F)(F)F)cc3)ccc2O[C@@H]1CN(C)Cc1ccc(Cl)c(Cl)c1', 'active');

Query block: What did this assay record as the result for COc1ccc(S(=O)(=O)Nc2ccc3c(c2)C(=O)N([C@@H](C)CO)C[C@@H](C)[C@@H](CN(C)Cc2ccc(C(F)(F)F)cc2)OCCCC[C@@H](C)O3)cc1 ?
Result block: inactive

Query block: Per the assay record, what outcome was assigned to C[C@@H]1CN([C@H](C)CO)C(=O)Cc2cc(NC(=O)CCN3CCOCC3)ccc2O[C@H]1CN(C)S(=O)(=O)c1ccc(Cl)cc1 ?
Result block: inactive

Query block: GET /call?item= COc1ccc(S(=O)(=O)Nc2ccc3c(c2)C(=O)N([C@H](C)CO)C[C@H](C)[C@H](CN(C)Cc2ccc(C(F)(F)F)cc2)OCCCC[C@H](C)O3)cc1 returns the recorded outcome of this test.
Result block: active

Query block: Hello, I am checking results. What call was entered for COc1ccc(NC(=O)Nc2ccc3c(c2)C(=O)N([C@@H](C)CO)C[C@@H](C)[C@H](CN(C)Cc2ccc(C(=O)O)cc2)OCCCC[C@@H](C)O3)cc1 ?
Result block: inactive
